biological target: T1, human CD11a (human, UniProt P20701 26-1170); assay: FACScan, Jurkat cells
T1 construct: whole, on cells; On cells it stands paired with CD18 as LFA-1; also called alpha subunit of LFA-1; LFA-1 (CD11a/CD18)
T1 sequence (P20701 26-1170): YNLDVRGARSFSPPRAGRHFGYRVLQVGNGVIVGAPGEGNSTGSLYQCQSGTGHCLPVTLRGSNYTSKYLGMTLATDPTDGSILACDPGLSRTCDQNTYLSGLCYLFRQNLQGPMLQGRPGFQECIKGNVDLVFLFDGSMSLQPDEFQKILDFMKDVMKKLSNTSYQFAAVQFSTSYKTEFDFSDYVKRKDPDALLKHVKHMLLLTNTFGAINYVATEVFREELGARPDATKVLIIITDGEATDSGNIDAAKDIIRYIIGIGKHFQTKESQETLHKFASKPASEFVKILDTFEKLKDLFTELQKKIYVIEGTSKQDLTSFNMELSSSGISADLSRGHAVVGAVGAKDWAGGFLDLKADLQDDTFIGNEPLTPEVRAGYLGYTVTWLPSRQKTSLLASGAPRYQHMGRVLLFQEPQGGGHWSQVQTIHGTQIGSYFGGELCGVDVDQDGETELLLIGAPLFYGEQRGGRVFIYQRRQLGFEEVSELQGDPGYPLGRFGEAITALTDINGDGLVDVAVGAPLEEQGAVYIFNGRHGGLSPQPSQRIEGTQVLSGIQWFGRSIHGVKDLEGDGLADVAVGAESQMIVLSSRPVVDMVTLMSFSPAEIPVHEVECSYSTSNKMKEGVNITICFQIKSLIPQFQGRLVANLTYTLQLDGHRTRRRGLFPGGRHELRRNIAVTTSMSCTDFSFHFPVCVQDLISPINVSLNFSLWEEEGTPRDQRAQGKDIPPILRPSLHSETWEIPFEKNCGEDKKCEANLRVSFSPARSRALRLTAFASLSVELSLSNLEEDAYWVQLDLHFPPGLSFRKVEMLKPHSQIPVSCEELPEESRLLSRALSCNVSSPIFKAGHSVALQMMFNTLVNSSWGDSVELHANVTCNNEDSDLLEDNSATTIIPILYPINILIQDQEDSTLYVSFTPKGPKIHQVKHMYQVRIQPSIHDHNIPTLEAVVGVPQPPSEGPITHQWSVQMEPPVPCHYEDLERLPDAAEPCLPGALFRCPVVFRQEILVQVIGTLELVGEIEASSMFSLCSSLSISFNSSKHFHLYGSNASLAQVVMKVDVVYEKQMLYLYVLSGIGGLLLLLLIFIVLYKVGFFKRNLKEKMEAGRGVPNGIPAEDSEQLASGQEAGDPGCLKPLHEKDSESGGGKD
In this section we review reported EC50 F(ab)/EC50 F(ab)-2 values for a set of binders.
PROPERTY_MEASURED: EC50 F(ab)/EC50 F(ab)-2 (ratio)

| BINDER | PROPERTY_MEASURED | READING |
| --- | --- | --- |
| chimeric MHM24 IgG1 (chIgG1) (antibody, V domains shown, Murine VL and VH fused to human constant light and heavy (IgG1) chains; also called chimeric IgG1; chlgG1) VH: EVQLQQPGAELMRPGASVKLSCKASGYSFTGHWMNWVRQRPGQGLEWIGMIHPSDSETRLNQKFKDKATLTVDKSSSSAYMQLSSPTSEDSAVYYCARGIYFYGTTYFDYWGQGTTLTVSS VL: DVQITQSPSYLAASPGETISINCRASKTISKYLAWYQEKPGKTNKLLIYSGSTLQSGIPSRFSGSGSGTDFTLTISSLEPEDFAMYYCQQHNEYPLTFGTGTKLELKR | EC50 F(ab)/EC50 F(ab)-2 | 0.006 |
| humanized MHM24 F(ab)-7 (Fab, V domains shown) VH: EVQLVESGGGLVQPGGSLRLSCAASGYSFTGHWMNWVRQAPGKGLEWVGMIHPSDSETRYNQKFKDRFTISVDKSSSTLYLQMNSLRAEDTAVYYCARGIYFYGTTYFDYWGQGTLVTVSS VL: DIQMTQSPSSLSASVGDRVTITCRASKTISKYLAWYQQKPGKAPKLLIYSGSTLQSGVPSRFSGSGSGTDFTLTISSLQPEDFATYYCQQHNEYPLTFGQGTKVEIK | EC50 F(ab)/EC50 F(ab)-2 | 0.004 |
